FYI, the data here is from ChEMBL document CHEMBL5338752.

Assay: AUC in sixteen hrs fasted Sprague-Dawley rat at 3 mg/kg, po measured upto 24 hrs by LC-MS/MS analysis
Type: ADME, organism-based
Set-up: time < 24 hrs, dose 3 mg/kg, route po
Settings: in vivo
test.readout: AUC at 24 h (ng·h/mL)
Response body: numeric value in ng·h/mL, unit text excluded.

test_smiles=CCNC(=O)Oc1ccc2nc(-c3ccc4ccccc4c3)n(-c3ccnc(N[C@H]4CCCN(C(=O)C5CC5)C4)n3)c2c1 reading=260

QUERY: Note down AUC at 24 h recorded for `CNC(=O)Oc1ccc2nc(-c3ccc4ccccc4c3)n(-c3ccnc(N[C@H]4CCCN(C(=O)C5CC5)C4)n3)c2c1`
RESULT: 351

QUERY: Note down AUC at 24 h recorded for `N#CCc1cnc(-c2ccc3ccccc3c2)n1-c1ccnc(N[C@H]2CCCN(C(=O)C3CC3)C2)n1`
RESULT: 392

QUERY: Note down AUC at 24 h recorded for `CN(C)C(=O)Oc1ccc2nc(-c3ccc4ccccc4c3)n(-c3ccnc(N[C@H]4CCCN(C(=O)C5CC5)C4)n3)c2c1`
RESULT: 554

QUERY: Note down AUC at 24 h recorded for `NC(=O)Oc1ccc2nc(-c3ccc4ccccc4c3)n(-c3ccnc(N[C@H]4CCCN(C(=O)C5CC5)C4)n3)c2c1`
RESULT: 345
